Measured Target: CKα1 (Homo sapiens)
Construct: an N-terminally His-tagged truncated form of CKα1 (Δ75–457) was cloned into a pET-28a vector; His tag (N); made in house; host or cells: E. coli BL21 (DE3) Star
Sequence (P35790 75-457): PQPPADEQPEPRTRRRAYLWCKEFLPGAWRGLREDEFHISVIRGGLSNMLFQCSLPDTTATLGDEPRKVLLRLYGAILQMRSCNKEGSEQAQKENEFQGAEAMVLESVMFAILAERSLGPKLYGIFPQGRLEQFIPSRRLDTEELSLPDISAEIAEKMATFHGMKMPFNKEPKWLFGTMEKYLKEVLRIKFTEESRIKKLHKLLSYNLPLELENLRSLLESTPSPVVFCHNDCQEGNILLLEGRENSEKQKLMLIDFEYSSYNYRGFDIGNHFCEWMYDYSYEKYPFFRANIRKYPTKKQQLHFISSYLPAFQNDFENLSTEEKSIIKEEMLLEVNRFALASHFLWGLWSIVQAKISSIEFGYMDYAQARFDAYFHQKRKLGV
Assay Summary: Choline kinase assay ([methyl-14C]choline into PCho, purified enzyme)
Type: biochemical
Condition Notes: concentration required to inhibit CKα1 enzyme by 50%
Measurement Name: IC50 (nM)
Dear colleague, please return just the value in nM, with no unit written.

So for [Br-].[Br-].c1cc2c(N3CCCC3)nc[n+](Cc3ccc(-c4ccc(C[n+]5cnc(N6CCCC6)c6ccsc65)cc4)cc3)c2s1 , the logged IC50 turned out to be 4870

So for [Br-].[Br-].c1cc2c(N3CCCCCC3)nc[n+](Cc3ccc(OCCOc4ccc(C[n+]5cnc(N6CCCCCC6)c6ccsc65)cc4)cc3)c2s1 , the logged IC50 turned out to be 350

So for [Br-].[Br-].c1cc2c(s1)c(N1CCCC1)nc[n+]2Cc1ccc(CCc2ccc(C[n+]3cnc(N4CCCC4)c4sccc43)cc2)cc1 , the logged IC50 turned out to be 1810

So for [Br-].[Br-].c1cc2c(s1)c(N1CCCCCC1)nc[n+]2Cc1ccc(OCCOc2ccc(C[n+]3cnc(N4CCCCCC4)c4sccc43)cc2)cc1 , the logged IC50 turned out to be 700

So for c1cc2c(s1)c(N1CCCCCC1)nc[n+]2Cc1ccc(CCCCc2ccc(C[n+]3cnc(N4CCCCCC4)c4sccc43)cc2)cc1 , the logged IC50 turned out to be 1080

So for CN(c1ccccc1)c1nc[n+](Cc2ccc(-c3ccc(C[n+]4cnc(N(C)c5ccccc5)c5sccc54)cc3)cc2)c2ccsc12 , the logged IC50 turned out to be 1060
